settings: buffer; pH 7.4; 200.0 µM
Assignment: determine reported solubility kinetic for the given compounds.

| compound | solubility kinetic |
| --- | --- |
| CC(C)(C)N(Cc1ccccc1)C(=O)COC(=O)C1CC1 | > 43.4 µg/mL |
| CC1(C)CC(=O)C(N=Nc2cccnc2)=C(O)C1 | > 36.8 µg/mL |
| O=C1N(c2ccccc2)CCN1c1ccccc1 | < 0.3 µg/mL |

Next item in the queue.
Briefly, solubility kinetic measured for O=C(O)c1cc(NC(=O)C2CCCO2)cc(C(=O)O)c1 (centres undefined) : > 41.9 µg/mL

* * *

settings: buffer; pH 7.4; 200.0 µM
assay_readout: solubility kinetic

Before answering, review these 6 worked examples.
| compound | solubility kinetic |
| --- | --- |
| O=[N+]([O-])c1cc(S(=O)(=O)N2CCCC2)ccc1SCCO | > 49.9 µg/mL |
| CCNC(=S)N1CCN(C(=O)C(Cc2ccccc2)NC(C)=O)CC1 (centres undefined) | > 54.4 µg/mL |
| O=C(NC(=S)Nc1ccc(O)cc1)C1CCCC1 | > 39.7 µg/mL |
| O=C(Oc1ccc(C(=S)N2CCOCC2)cc1)c1cccc(Cl)c1 | < 0.8 µg/mL |
| O=C1NNC(=O)C1c1ccccc1 | > 26.4 µg/mL |
| O=C(COc1ccc(Br)cc1)N1CCNC1=O | > 44.9 µg/mL |

Please state, for each entry, its recorded solubility kinetic.
1. CCCCc1nnc(SCC(=O)Nc2nccs2)n1C
2. O=C(COC(=O)Cc1c(Cl)cccc1Cl)NC1CCCC1
3. O=C(O)C1CCN(C(=O)COc2ccc(Br)cc2)CC1

[reply]
1: > 46.7 µg/mL; 2: > 49.5 µg/mL; 3: > 51.3 µg/mL
